- Test system: KM12 colon
- Assay name: NCI tumour cell line growth inhibition, 48 h
# TGI annotations

// worked examples, TGI included
COc1ccc2c(ccc3c(COC(=O)NC(C)C)c(COC(=O)NC(C)C)n(C)c32)c1; 25.4 µM
COC(=O)C1C2CC3C1C3C2C(=O)OC (stereo not given); > 100 µM
CN(C)/C=N/NC(=O)/C(C#N)=C/N(C)C; > 100 µM
CC1=C[P+](Cc2ccccc2)(c2ccccc2)CC1 (stereo not given); > 100 µM
CN1CCN(CCCCN2c3ccccc3Sc3cc(N=[N+]=[N-])ccc32)CC1; 3.48 µM

What measured TGI goes with O=C1OC(c2ccccc2)(c2cc(Br)c(O)c(Br)c2)c2ccccc21 (stereo not given) ?
60.5 µM

What TGI value was documented for this molecule, COc1cc(/C=C/C(=O)CC(=O)/C=C/c2ccc(O)c(OC)c2)ccc1O ?
19.7 µM

Find the recorded TGI belonging to COC(=O)/C=C(\S/C(=N\n1cc(C(=O)OC)c(C(=O)OC)c1-c1ccc(C)cc1)c1ccc(C)cc1)C(=O)OC and report it.
41.9 µM

Param item = O=[N+]([O-])c1c(C=Nc2ccccc2)oc(-c2ccc3c(c2)OCO3)c1-c1ccc2c(c1)OCO2 ; retrieve measured TGI.
> 100 µM

Reported TGI, molecule N#C/C(=C/Sc1ccccc1)C(=O)O : ____
99.3 µM

---

- System: OVCAR-4 ovarian
- Assay name: NCI tumour cell line growth inhibition, 48 h
A collection of molecules and their measured TGI

Illustrative cases are given below, each with its answer.
Clc1cc2n[se]nc2cc1Cl; > 100 µM
CCCCCCCCCCCCCCCCOCC(CCl)OP(=O)(O)OP(=O)(O)OCC1OC(n2ccc(N)nc2=O)C(O)C1O (stereo not drawn); > 100 µM

Now turn to the next molecule.
Entry O=C(NO)c1ccc(Cn2c(=O)n(-c3ccccc3F)c(=O)c3ccccc32)cc1 : reported TGI = ?
12.9 µM

---

// reported TGI per item
- Test system: SN12C renal
- Assay name: NCI tumour cell line growth inhibition, 48 h

CCC1C(=O)C(O)[C@H]2[C@@H]3C(O)CC4=CC(=O)CC[C@]4(C)[C@H]3CC[C@]12C (some centres undefined); > 50 µM
CC(=O)OCCOc1cc2c([nH]c3ccccc32)c(C)c2cccc1-2; 10.9 µM
COc1cccc2c1c(C1=C(c3cn(C)c4ccccc34)C(=O)NC1=O)cn2C; > 25 µM
Cc1ncsc1-c1ccc(CNC(=O)[C@@H]2C[C@@H](O)CN2C(=O)[C@@H](NC(=O)C2(C#N)CC2)C(C)(C)C)cc1; > 100 µM
N#Cc1nc(C(CO)N(Cc2ccccc2)C(=O)O)oc1N (centres undefined); > 100 µM
CC[C@@H]1C[C@H]2CC3c4[nH]c5ccc(O)cc5c4CCN(C2)C31; > 100 µM
Cc1ccc2[nH]c3c(c2c1)C1CCC(C(C)(C)C)CC1C1C(=O)N(c2ccc4c(c2)OCO4)C(=O)C31 (centres undefined); 4.96 µM
COc1ccc(OC(C(=O)O)c2ccccc2)c2c1CCCC2=O (centres undefined); > 100 µM

State the recorded TGI for this entry: NCCC(=O)N[C@@H](Cc1cc(O)c(O)c(SCC(NC(=O)CC[C@H](N)C(=O)O)C(=O)NCC(=O)O)c1)C(=O)O (some centres undefined)
> 50 µM

Reported TGI for CCCCCCCCCCCCCCCCOCC(CCl)OP(=O)(O)OP(=O)(O)OCC1OC(n2ccc(N)nc2=O)C(O)C1O (centres undefined) : what is it?
> 100 µM

Which TGI is listed for O=C(NCC(O)CNC(=O)C(F)(F)F)C(F)(F)F ?
> 100 µM

---

- Tested on: ACHN renal
- Assay name: NCI tumour cell line growth inhibition, 48 h
Measurement name: TGI

Look up TGI: COC1CC(NC(=O)C(F)(F)F)C(OC(C)=O)C(C)O1 (stereo not given)
> 100 µM

For CCOC(=O)/C(C#N)=C1/C(O)=C(C(=O)OC)C(C(=O)OC)=C1C(=O)OC , what is its reported TGI?
> 100 µM

Can you share its TGI? I mean this compound: CCC[CH2][Sn]1([CH2]CCC)[O]C(=O)c2ccc(C)cc2[O]1
1.42 µM

---

Catalogue of GI50 values
- System: SF-268 CNS
- Assay name: NCI tumour cell line growth inhibition, 48 h

COc1cccc2c1c(C1=C(c3cn(C)c4ccccc34)C(=O)NC1=O)cn2C; > 25 µM

Find the measured GI50: item CC/C(=C(/c1ccc(O)cc1)c1ccc(OCCN2CCCCC2)cc1)c1ccc(OC)cc1 , target or system SF-268 CNS.
2.14 µM

What measured GI50 is associated with O=C(/C(=C/c1ccc([N+](=O)[O-])cc1)SCc1ccc(F)cc1)c1ccc(Cl)cc1 on SF-268 CNS?
9.44 µM

What GI50 appears in the records for this compound with SF-268 CNS? C[n+]1ccc(-c2c3nc(c(-c4cc[n+](C)cc4)c4ccc([n-]4)c(-c4cc[n+](C)cc4)c4nc(c(-c5cc[n+](C)cc5)c5ccc2[n-]5)C=C4)C=C3)cc1.[I-].[Zn+2]
11 µM

Query GI50 on SF-268 CNS for CCOC(=O)/C(=C(/C)NCC(C)C)c1cc(O)c(O)c2c(C)cc(=O)[nH]c12
4.67 µM

Param readout = GI50; param system = SF-268 CNS; param query = N#CS.N=C=S.N=C=S.[Cu+2].[NH2-].[NH2-].[NH2-].[NH2-].c1ccc2ncccc2c1 ; response: value
49.7 µM

Provide value of GI50 for this record tested with SF-268 CNS: CCCCCCCCCCCCOC1C(C(CC(=O)N2CCN(c3cccc(C(F)(F)F)c3)CC2)NS(=O)(=O)c2cc(Cl)cc(Cl)c2)OC2OC(C)(C)OC21 (configuration not stated)
> 100 µM

Under SF-268 CNS: GI50 value of CCCCCCc1nc2nc(Cl)c(Cl)nc2[nH]1 ?
> 100 µM

Form entry - test system: SF-268 CNS; read-out: GI50; compound: CNC(=O)Oc1cc(C)c(/C=C/c2cncc(C(=O)NC)c2)c(C)c1
> 25 µM

Fill in the recorded GI50 for this compound, with SF-268 CNS as test system: COC(=O)/C=C/c1cn(C(C)=O)c2ccc(Br)cc12
26.4 µM

---

Reported TGI by item:
- System: SR leukemia
- Assay name: NCI tumour cell line growth inhibition, 48 h

The following compounds have reported results that may help.
COc1ccc2nc3ccccc3c(NCCCN(C)CCCl)c2c1; 0.146 µM
COc1ccc(-c2c(-c3cc(OC)c(OC)c(OC)c3)noc2N)cc1; 29.1 µM
CCOC(=O)c1ccc(Nc2nc3ccccc3nc2C(=O)OCC)cc1; > 100 µM
C=CN(C)S(C)(=O)=O; > 100 µM
N#Cc1nc(C(CO)N(Cc2ccccc2)C(=O)O)oc1N (stereo unspecified); > 100 µM

Moving on to the next compound.
Lab note: need TGI with SR leukemia for entry C[Si](C)(OCCS(=O)(=O)O)OC(=C1S(=O)(=O)OCCOS1(=O)=O)c1cccc2ccccc12 , please look it up.
> 100 µM

---

- Test system: UACC-62 melanoma
- Assay name: NCI tumour cell line growth inhibition, 48 h
// reported log10(TGI) for each item listed
Form field - Quantity: TGI; Unit: µM; Scale: log10

COc1ccc(OC)c(-c2cc(=O)c3c(OC)c(OC)c(OC)c(OC)c3o2)c1; 1.81
CC(C)(C)c1ccc(/C=N/NC(=O)CSCC(=O)N/N=C/c2ccc(C(C)(C)C)cc2)cc1; 1.51

Need log10(TGI), item CC(=O)[C@@]1(O)[C@H](C)C[C@H]2[C@@H]3C=C(C)C4=Cc5c(cnn5-c5ccccc5)C[C@]4(C)[C@H]3[C@@H](O)C[C@@]21C
0.76

Please look up its log10(TGI): COc1ccc(/C(CC2OC(=O)c3ccccc32)=N\NC(=O)C[N+](C)(C)C)cc1 (stereo not given)
1.60

---

- Test system: LOX IMVI melanoma
- Assay name: NCI tumour cell line growth inhibition, 48 h; in the data active = GI50 below about 0.43 µM; inactive = the rest
Thanks in advance; please answer with one of these: TRUE = active, FALSE = inactive

Some solved entries appear below for comparison.
CCC[CH2][Sn]1([CH2]CCC)[O]C(=O)c2ccc(C)cc2[O]1; TRUE
O=C(NCc1ccco1)c1ccc(NC2=C(Cl)C(=O)N(Cc3ccccc3)C2=O)cc1; FALSE

Moving on to another molecule below.
Can you look up the reported call for C[C@H](CCCNCCCNCCCN)[C@H]1CC[C@H]2[C@@H]3[C@H](OCCCN)C[C@H]4C[C@H](OCCCN)CC[C@]4(C)[C@H]3C[C@H](OCCCN)[C@]12C for me?
FALSE

---

- System: HCT-15 colon
- Assay name: NCI tumour cell line growth inhibition, 48 h
Measurement name: GI50

C=CN(C)S(C)(=O)=O; > 100 µM

I am curious: what GI50 value has been reported for CC1=C([Te]c2ccc(O)cc2)C(=O)c2ccccc2C1=O ?
1.01 µM

Which GI50 is listed for S=C(N/N=C(/c1ccccc1)c1ccccn1)N1CCCCCC1 ?
0.00327 µM

// lookup GI50 for O=C(NO)c1ccc(Cn2c(=O)n(-c3ccccc3F)c(=O)c3ccccc32)cc1
1.92 µM

Can you share its GI50? I mean this molecule: Cc1cn2c(/C=N/N=C(N)N)c(-c3cccnc3)nc2s1
4.39 µM
